Assignment: determine reported Percent Effect for the given compounds.
Biological target: Shiga toxin 2 (Escherichia coli O157:H7) (UniProt P09385+P09386)
Assay: E. coli 0.157:H7 Shiga Toxin SOP - stx2 screening assay
Format: functional
Parameters: scale not given: direction of the effect not stated beside the values
Settings: 30 µM
Provide the reading as a plain figure in %.

Lab note: CS(=O)(=O)N1CCC(Oc2cnccn2)CC1 gave Percent Effect of -5.3

So for CCNC(c1cccnc1)c1ccc(F)c(F)c1 (configuration not stated) , the logged Percent Effect turned out to be 10.8

Just so you know, measured Percent Effect for Cc1nccn1-c1nccnc1C1CCN(Cc2ccc(F)cc2)CC1 came out at -6.1

Value of measured Percent Effect for the entry Cc1cccnc1NCCNC(=O)[C@H]1CNC[C@@H](C(=O)N2CCCC2)C1 : -7.88

The recorded Percent Effect for entry CCc1nc(C2CCCN2CCCS(=O)(=O)c2ccccc2)no1 (configuration not stated) equals -9.14

Record CC(C)(C)NC(=O)CN1CCN(C(=O)Nc2ccc(F)cc2F)CC1 . Reported Percent Effect: -44.1

Entry CCCC1CCCN(Cc2csc(-c3cnn(C)c3)n2)CC1 (configuration not stated) ; Percent Effect = 20.9

Percent Effect reading for CC(C)CCC(C)NC(=O)c1ccc(OCC(N)=O)cc1 (configuration not stated) : -8.96

Looking up Nc1nccc(-c2c[nH]nc2C2CCCCC2)n1 , I see its Percent Effect listed as -26.9

Percent Effect in this record for CCNC(=O)N1CCN(C(=O)c2cc(Cl)cc3cccnc23)CC1 : -11.9

Lab note: measured Percent Effect of Cc1cccc(CN2C(=O)CC[C@@H]3[C@H]2CCN3CC2CCOCC2)n1 was -5.24

Data point: CNS(=O)(=O)Cc1ccc(CNC(=O)Nc2cn[nH]c2)cc1 ; Percent Effect = -4.62

// Percent Effect lookup, compound = O=S(=O)(NCC1(O)CCOc2ccccc21)c1cccs1 (configuration not stated) , result: -8.71

The compound identified as COCC1CN(Cc2ccc(C)o2)Cc2cn(C)nc21 (configuration not stated) registered its Percent Effect at -13.2

According to the records, this compound Cc1nccn1C1CCCN(C(=O)c2ccc3c(c2)NC(=O)CO3)C1 (configuration not stated) displays Percent Effect of 24.5

Lab note: measured Percent Effect of Cc1ccc(Cc2cnc(NC(=O)C3CNC(=O)N3)s2)cc1F (configuration not stated) was -17.9

Query COc1ccc(CN2C[C@@H](OCc3ccccn3)[C@H]3COC[C@H]32)cc1 yields Percent Effect of 12.7

Looking up CCS(=O)(=O)N1Cc2nccn2CC(Cn2nc(C)nc2C)C1 (configuration not stated) , I found its Percent Effect recorded as 6.38

GET /value?item= COc1ccc(CN(Cc2cccnc2)CC2CCCO2)c(OC)c1 (configuration not stated) &field=Percent Effect returns -13.4

Input CC(C)NC(=O)C1CN(C(=O)N2CCCC2)CC12CCOCC2 (configuration not stated) . Output Percent Effect: 8.24

Memo: O=C(O)c1csc(S(=O)(=O)Nc2cccc(OC(F)F)c2)c1 , reported Percent Effect: -13.1

Percent Effect reported for this compound O=C([C@H]1COC[C@H]2CN(Cc3ccco3)C[C@H]21)N1CCCO1 : -30.2

For record c1cnn(CCN2CCOC(Cn3cncn3)C2)c1 (configuration not stated) the listed Percent Effect is -9.56

Record summary for CC1c2ncc(Cn3cncn3)n2CCN1C(=O)C1CCOCC1 (configuration not stated) : reported Percent Effect = -10.6

Note to self: Percent Effect recorded for COc1ccccc1OC1CCN(Cc2cnc(N(C)C)nc2)CC1 was 17.9

The recorded Percent Effect for entry CC(C)NC(=O)N1C[C@H]2C[C@H](C(=O)NCc3ccccc3)[C@@H](C1)O2 equals 1.68

Query COC(=O)c1cccc(C(=O)N2CCN(c3ccccc3F)CC2)n1 yields Percent Effect of -16.2

The compound listed as c1cncc(C2COC3(CCN(CC4CC4)CC3)C2)c1 (configuration not stated) shows Percent Effect equal to -13.1

Cc1cc(CNc2cc(Cl)ccc2Cl)no1 yielded Percent Effect of 2.51

Percent Effect in this record for Cc1c[nH]c(CN(C)c2nc(C3CCCC3)nc3c2cnn3C)n1 : -4.38

Quick note, Percent Effect for CN(C(=O)C1CCCCC1)[C@@H]1CCC[C@@H](N2CCOCC2)[C@@H]1O landed at -11.6

Percent Effect reading for CCCn1[nH]cc/c1=N\C(=O)CN1CCn2c(nnc2C2CC2)C1 : 25.6

# compound O=C(NCC1CC1)C1CN(C(=O)c2cccs2)CC12CCOCC2 (configuration not stated) ; its Percent Effect = 0.242

Given item O=C(Nc1cnccn1)[C@H]1COC[C@H]2CN(C3CCCC3)C[C@H]21 , the value recorded as its Percent Effect is 8.55

Record summary for CC(=O)N1CCCCC1c1cc(C(=O)N2CCOCC2)[nH]n1 (configuration not stated) : reported Percent Effect = 15.2

// Percent Effect lookup, compound = COC(=O)c1cccc(NC(=O)CCn2nc(-c3cccs3)oc2=O)c1 , result: 18.1

# Percent Effect (compound: Cn1cccc1C(=O)N1CCCN(CCCc2ccccc2)CC1 ) is -20.8

The value of Percent Effect measured for the compound CN(Cc1ccsc1)C(=O)Nc1cccnc1N1CCCC1 turned out to be -69.4

Notebook: CC(NC(=O)N(C)Cc1ccsc1)c1ccc2c(c1)CCC(=O)N2 (configuration not stated) , Percent Effect read as 29

// field: Percent Effect; key: CCOc1cc(C)nc(N2CCN(C(=O)CC)CC2)n1 ; value = 12.8

Entry CCCC(C)C(=O)N1CCC(n2cccc2C(=O)OC)CC1 (configuration not stated) — recorded Percent Effect = -16.1

Noted for COc1ccc(CC(=O)N2CCCCC2Cn2cccn2)cc1OC (configuration not stated) : its Percent Effect reads -6.84

Percent Effect recorded for this compound, CCC1CN(C(=O)Nc2cnc3c(cnn3C(C)C)c2)CCO1 (configuration not stated) , is 13.4

Consider Cc1cccc(CN2C[C@@H]3CN(C(=O)NC(C)C)C[C@@H]3C2=O)c1 . Its measured Percent Effect is -52.1

Noted for O=C1COC2(COCCN(Cc3ccsc3)C2)CN1c1ccc(F)cc1 (configuration not stated) : its Percent Effect reads -4.46

Value of Percent Effect reported for the compound Cc1n[nH]c(C)c1NC(=O)CN1CCCC(CNC(=O)C(C)(C)C)C1 (configuration not stated) is 19.6

Noted for CS(=O)(=O)NC[C@]12COC[C@H]1CN(C(=O)C1CCCCC1)C2 : its Percent Effect reads -3.53
